Values compiled from BindingDB's records for doi:10.1021/acschembio.5b00514.

# Target: Rhomboid domain-containing protein (Thermotoga maritima (strain ATCC 43589 / DSM 3109 / JCM 10099 / NBRC 100826 / MSB8))
# Sequence (Q9WZ53 whole entry, the tested form may be a part): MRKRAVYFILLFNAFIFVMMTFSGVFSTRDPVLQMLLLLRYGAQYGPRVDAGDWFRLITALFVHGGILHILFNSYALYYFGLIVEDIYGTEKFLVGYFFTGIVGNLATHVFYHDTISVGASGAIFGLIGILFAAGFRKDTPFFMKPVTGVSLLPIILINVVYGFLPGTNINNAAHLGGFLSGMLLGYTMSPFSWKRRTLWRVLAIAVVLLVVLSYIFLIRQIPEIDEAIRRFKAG
# Protocol details: Activity-based Protein Profiling (ABPP)
# Experimental parameters: pH 7.4; 37 °C
Measure name: pIC50
Numbers only, as −log10 of the molar value.

Give measured pIC50 for every item shown.
1. O=c1oc(OCCCCCc2ccccc2)c(Cl)c2ccc([N+](=O)[O-])cc12
2. O=c1oc(Cl)c(Cl)c2ccccc12
3. C#CCCC[C@@H]1OC(=O)[C@H]1CCCC
4. C#CCCC[C@@H]1OC(=O)[C@H]1CCCCC

Found:
1: 4.55; 2: 6.00; 3: 4.32; 4: 4.57

====

# Target: AN1-type domain-containing protein (Archaeoglobus fulgidus (strain ATCC 49558 / DSM 4304 / JCM 9628 / NBRC 100126 / VC-16))
# Sequence (O29251 whole entry): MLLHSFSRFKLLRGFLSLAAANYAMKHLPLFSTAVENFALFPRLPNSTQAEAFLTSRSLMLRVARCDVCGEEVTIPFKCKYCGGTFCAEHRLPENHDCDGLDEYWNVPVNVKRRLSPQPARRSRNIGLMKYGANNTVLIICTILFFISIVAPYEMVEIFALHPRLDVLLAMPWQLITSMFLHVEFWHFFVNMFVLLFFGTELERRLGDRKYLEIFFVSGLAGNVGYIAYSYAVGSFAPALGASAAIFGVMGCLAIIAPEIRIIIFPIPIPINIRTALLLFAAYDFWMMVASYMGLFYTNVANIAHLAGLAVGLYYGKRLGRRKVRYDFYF
# Protocol details: Activity-based Protein Profiling (ABPP)
# Experimental parameters: pH 7.4; 37 °C
Measure name: IC50 (µM)
Give bare numbers, in µM.

> print(dat)
                            chemical.smiles  measure.name  measurement.units  obs.value
1  C#CCCC[C@@H]1OC(=O)[C@H]1c1cc(OC)c(OC)c(OC)c1          IC50                 µM          5

Kindly review the next compound as well.
Lookup: Check the records and state IC50 for `O=c1oc(Cl)c(Cl)c2ccccc12`
Found: 8.1
